biological target: Voltage-gated inwardly rectifying potassium channel KCNH2 (Homo sapiens); assay: Inhibition of human ERG
Sequence (Q12809 whole entry): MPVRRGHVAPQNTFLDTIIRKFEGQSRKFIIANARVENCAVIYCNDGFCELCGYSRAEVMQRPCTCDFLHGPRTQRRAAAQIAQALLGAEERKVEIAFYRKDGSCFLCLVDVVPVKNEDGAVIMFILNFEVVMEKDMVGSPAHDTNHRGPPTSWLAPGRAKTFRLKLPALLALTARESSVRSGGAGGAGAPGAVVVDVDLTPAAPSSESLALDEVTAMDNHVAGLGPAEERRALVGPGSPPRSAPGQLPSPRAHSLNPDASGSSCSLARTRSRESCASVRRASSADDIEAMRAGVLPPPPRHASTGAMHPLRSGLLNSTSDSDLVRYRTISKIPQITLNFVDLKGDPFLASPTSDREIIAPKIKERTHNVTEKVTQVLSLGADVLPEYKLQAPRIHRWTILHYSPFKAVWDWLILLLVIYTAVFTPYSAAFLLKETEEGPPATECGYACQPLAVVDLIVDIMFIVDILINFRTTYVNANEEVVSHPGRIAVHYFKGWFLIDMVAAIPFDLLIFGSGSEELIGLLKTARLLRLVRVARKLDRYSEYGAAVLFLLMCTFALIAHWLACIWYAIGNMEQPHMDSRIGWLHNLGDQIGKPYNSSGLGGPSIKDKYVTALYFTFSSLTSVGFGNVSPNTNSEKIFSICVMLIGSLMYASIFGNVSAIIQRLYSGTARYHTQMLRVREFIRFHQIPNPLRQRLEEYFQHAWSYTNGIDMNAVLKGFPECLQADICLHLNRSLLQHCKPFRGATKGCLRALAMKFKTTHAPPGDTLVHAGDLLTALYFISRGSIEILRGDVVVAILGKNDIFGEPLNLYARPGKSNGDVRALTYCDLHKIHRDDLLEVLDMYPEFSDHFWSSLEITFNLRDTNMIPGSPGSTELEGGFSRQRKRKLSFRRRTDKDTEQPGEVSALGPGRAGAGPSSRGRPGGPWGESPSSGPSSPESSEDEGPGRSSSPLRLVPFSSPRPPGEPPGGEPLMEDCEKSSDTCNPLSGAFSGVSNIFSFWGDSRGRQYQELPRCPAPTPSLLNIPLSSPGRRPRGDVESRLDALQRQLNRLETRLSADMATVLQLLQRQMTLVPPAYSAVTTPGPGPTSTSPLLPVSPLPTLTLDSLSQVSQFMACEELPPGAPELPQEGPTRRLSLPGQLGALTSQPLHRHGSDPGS
Parameter measured: pIC50
Convention used: pIC50 is expressed as -log10 of the molar concentration.

Solved cases below.
{"Mol smiles": "N#Cc1ccc2nn(CCCCN3CCN(c4cccc5sccc45)CC3)c(=O)n2c1", "Measured value": 5.98}
{"Mol smiles": "O=c1n(CCCCN2CCN(c3cccc4sccc34)CC2)nc2ccccn12", "Measured value": 5.52}

Exercise: Given the compound O=c1n(CCCCN2CCN(c3cccc4sccc34)CC2)nc2c(F)cccn12 , write its reported pIC50.
Solution: 5.66

* * *

target: 5-hydroxytryptamine receptor 2A (Homo sapiens); assay: Antagonist activity at 5HT2A receptor (unknown origin) by HTRF cAMP assay
Sequence (P28223 whole entry): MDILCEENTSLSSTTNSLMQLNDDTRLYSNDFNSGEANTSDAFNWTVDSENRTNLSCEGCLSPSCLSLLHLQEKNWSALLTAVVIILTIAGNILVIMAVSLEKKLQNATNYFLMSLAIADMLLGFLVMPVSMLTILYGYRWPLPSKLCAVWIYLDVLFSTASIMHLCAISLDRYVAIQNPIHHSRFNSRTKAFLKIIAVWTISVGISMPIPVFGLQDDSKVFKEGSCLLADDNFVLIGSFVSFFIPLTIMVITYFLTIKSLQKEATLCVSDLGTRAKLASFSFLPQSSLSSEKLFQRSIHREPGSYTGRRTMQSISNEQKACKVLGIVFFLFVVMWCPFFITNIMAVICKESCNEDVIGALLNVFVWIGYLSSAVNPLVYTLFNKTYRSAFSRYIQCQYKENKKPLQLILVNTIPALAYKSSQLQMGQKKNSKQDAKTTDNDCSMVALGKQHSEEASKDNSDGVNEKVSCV
pIC50: −log10 of the molar value.
Returns Criterion met if the recorded pIC50 is greater than or equal to 7, and Criterion not met otherwise.

{"Mol smiles": "O=c1n(CCCCN2CCN(c3cccc4sccc34)CC2)nc2c(Cl)cc(Cl)cn12", "Study target": "5-hydroxytryptamine receptor 2A (Homo sapiens)", "Assigned category": "Criterion not met"}
{"Mol smiles": "O=c1n(CCCCN2CCC(c3cc(F)cc4oncc34)CC2)nc2ccccn12", "Study target": "5-hydroxytryptamine receptor 2A (Homo sapiens)", "Assigned category": "Criterion met"}
{"Mol smiles": "O=c1n(CCCCN2CCN(c3cccc4sccc34)CC2)nc2c(Cl)cccn12", "Study target": "5-hydroxytryptamine receptor 2A (Homo sapiens)", "Assigned category": "Criterion not met"}
{"Mol smiles": "O=c1n(CCCCN2CCN(c3cccc4sc(F)cc34)CC2)nc2c(F)cccn12", "Study target": "5-hydroxytryptamine receptor 2A (Homo sapiens)", "Assigned category": "Criterion not met"}
{"Mol smiles": "N#Cc1ccc2nn(CCCCN3CCN(c4cccc5sccc45)CC3)c(=O)n2c1", "Study target": "5-hydroxytryptamine receptor 2A (Homo sapiens)", "Assigned category": "Criterion met"}
{"Mol smiles": "O=c1n(CCCCN2CCN(c3cccc4scnc34)CC2)nc2ccccn12", "Study target": "5-hydroxytryptamine receptor 2A (Homo sapiens)", "Assigned category": "Criterion not met"}
{"Mol smiles": "O=c1n(CCCCN2CCN(c3cccc4sccc34)CC2)nc2c(F)cc(F)cn12", "Study target": "5-hydroxytryptamine receptor 2A (Homo sapiens)", "Assigned category": "Criterion met"}
{"Mol smiles": "COc1cccc2nn(CCCCN3CCN(c4cccc5sccc45)CC3)c(=O)n12", "Study target": "5-hydroxytryptamine receptor 2A (Homo sapiens)", "Assigned category": "Criterion met"}

Exercise: Entry O=c1n(CCCCN2CCN(c3cccc4sccc34)CC2)nc2ccc(F)cn12 : is its pIC50 no less than 7?
Solution: Criterion met

* * *

biological target: UniProt:P20309
Sequence (P20309 whole entry): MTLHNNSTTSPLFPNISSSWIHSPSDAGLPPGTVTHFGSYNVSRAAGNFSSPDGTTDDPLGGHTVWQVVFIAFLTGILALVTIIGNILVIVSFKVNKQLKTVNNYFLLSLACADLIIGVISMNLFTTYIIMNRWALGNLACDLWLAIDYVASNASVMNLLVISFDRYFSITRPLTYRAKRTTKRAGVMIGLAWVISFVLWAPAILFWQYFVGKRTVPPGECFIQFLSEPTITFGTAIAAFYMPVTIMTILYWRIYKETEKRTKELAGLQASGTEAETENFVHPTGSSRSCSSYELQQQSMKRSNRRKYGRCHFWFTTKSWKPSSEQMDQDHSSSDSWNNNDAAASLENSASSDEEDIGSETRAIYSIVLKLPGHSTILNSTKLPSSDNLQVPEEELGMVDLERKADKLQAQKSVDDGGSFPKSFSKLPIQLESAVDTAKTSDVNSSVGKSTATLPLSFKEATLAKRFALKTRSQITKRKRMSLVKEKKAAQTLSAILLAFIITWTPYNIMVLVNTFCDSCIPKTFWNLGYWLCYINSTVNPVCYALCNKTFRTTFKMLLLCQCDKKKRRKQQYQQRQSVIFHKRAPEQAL
Parameter measured: IC50

Solved cases below.
{"Mol smiles": "O=c1n(CCCCN2CCN(c3cccc4sccc34)CC2)nc2ccccn12", "IC50": "> 10 µM"}
{"Mol smiles": "N#Cc1ccc2nn(CCCCN3CCN(c4cccc5sccc45)CC3)c(=O)n2c1", "IC50": "> 10 µM"}

Exercise: Fill in IC50 for O=c1n(CCCCN2CCN(c3cccc4sccc34)CC2)nc2c(F)cccn12 tested with UniProt:P20309.
Solution: > 10 µM

* * *

target: 5-hydroxytryptamine receptor 1A (Homo sapiens, UniProt P08908); assay: Agonist activity at 5HT1A receptor (unknown origin) by calcium-dye based FLIPR assay
Sequence (P08908 whole entry): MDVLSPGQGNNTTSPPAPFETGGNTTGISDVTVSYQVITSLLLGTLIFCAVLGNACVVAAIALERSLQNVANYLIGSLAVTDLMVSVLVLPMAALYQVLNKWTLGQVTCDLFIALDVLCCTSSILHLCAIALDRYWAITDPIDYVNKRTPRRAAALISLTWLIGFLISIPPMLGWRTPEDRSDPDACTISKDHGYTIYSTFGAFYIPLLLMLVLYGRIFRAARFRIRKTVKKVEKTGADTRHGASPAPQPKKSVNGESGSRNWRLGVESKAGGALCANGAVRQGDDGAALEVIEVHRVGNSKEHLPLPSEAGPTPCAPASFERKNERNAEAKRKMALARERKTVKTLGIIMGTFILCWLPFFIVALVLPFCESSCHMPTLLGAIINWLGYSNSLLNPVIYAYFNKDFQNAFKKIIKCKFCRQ
Measured EC50 values are reported for all entries that follow.
Number only, in nM; omit the unit.

Solved cases below.
{"Mol smiles": "O=c1n(CCCCN2CCN(c3cccc4sccc34)CC2)nc2ccc(F)cn12", "Parameter measured": "EC50", "Measured value": 0.1}
{"Mol smiles": "N#Cc1cccn2c(=O)n(CCCCN3CCN(c4cccc5sccc45)CC3)nc12", "Parameter measured": "EC50", "Measured value": 1.4}
{"Mol smiles": "O=c1n(CCCCN2CCN(c3cccc4scnc34)CC2)nc2ccccn12", "Parameter measured": "EC50", "Measured value": 2.8}
{"Mol smiles": "O=c1n(CCCCN2CCN(c3cccc4sccc34)CC2)nc2ccc(Cl)cn12", "Parameter measured": "EC50", "Measured value": 9.5}
{"Mol smiles": "O=c1n(CCCCN2CCN(c3cccc4sccc34)CC2)nc2c(Cl)cc(Cl)cn12", "Parameter measured": "EC50", "Measured value": 0.1}

Exercise: Given the compound COc1cccc2nn(CCCCN3CCN(c4cccc5sccc45)CC3)c(=O)n12 , write its reported EC50.
Solution: 2

Exercise: Given the compound N#Cc1ccc2nn(CCCCN3CCN(c4cccc5sccc45)CC3)c(=O)n2c1 , write its reported EC50.
Solution: 9.7

# credit: ChEMBL document CHEMBL4619707
